System: Mus musculus
Assay: % bioavailability in mice after oral administration of prodrug
Assay type: ADME, organism-based
Conditions: in vivo
measured.quantity: F%
Field note: include the unit after the figure.

Guide cases for F%, answers given:
>>> df
                                chem_smiles  measured_value
0  Nc1ncnc2c1ncn2OCCOCP(=O)(OCc1ccc(Cl)cc1)OCc1ccc(Cl)cc1              8%
1  Nc1ncnc2c1ncn2OCCOCP(=O)(Oc1ccccc1)Oc1ccccc1             26%
2  Cc1ccccc1OP(=O)(COCCOn1cnc2c(N)ncnc21)Oc1ccccc1C             22%
3  CC(C)(C)OC(=O)c1ccc(OP(=O)(COCCOn2cnc3c(N)ncnc32)Oc2ccc(C(=O)OC(C)(C)C)cc2)cc1              0%
4  COc1ccc(OP(=O)(COCCOn2cnc3c(N)ncnc32)Oc2ccc(OC)cc2)cc1             10%
5  Cl.Nc1ncnc2c1ncn2OCCOCP(=O)(Oc1ccccc1)Oc1ccccc1             50%

Query: Kindly indicate its recorded F%. Item: CC(C)(C)C(=O)OCOP(=O)(COCCOn1cnc2c(N)ncnc21)OCOC(=O)C(C)(C)C
Result: 30%

Query: Supply recorded F% for CC(=O)Oc1ccc(COP(=O)(COCCOn2cnc3c(N)ncnc32)OCc2ccc(OC(C)=O)cc2)cc1 here.
Result: 8%

Query: Tell me F% reported for CCOP(=O)(COCCOn1cnc2c(N)ncnc21)OCC
Result: 8%

---

List of AUC values.
Test system: Mus musculus
Test: Concentration of the 9-[2-(Phosphonomethoxy)ethoxy]adenine in the blood following oral administration in mice
Assay type: ADME, organism-based
Parameters: unit not given here
Details: in vivo
Please reply with the value in numeric form only.

In [3]: df
Out[3]:
                                chem_smiles  measured_value
0  CC(=O)OCc1ccc(OP(=O)(COCCOn2cnc3c(N)ncnc32)Oc2ccc(COC(C)=O)cc2)cc1               0
1  Nc1ncnc2c1ncn2OCCOCP(=O)(OCC(Cl)Cl)OCC(Cl)Cl               3
2  CC(=O)Oc1ccc(OP(=O)(COCCOn2cnc3c(N)ncnc32)Oc2ccc(OC(C)=O)cc2)cc1               4
3  Cl.Nc1ncnc2c1ncn2OCCOCP(=O)(Oc1ccccc1)Oc1ccccc1              25
4  CC(C)(C)C(=O)OCOP(=O)(COCCOn1cnc2c(N)ncnc21)OCOC(=O)C(C)(C)C              15
5  CCOCCOP(=O)(COCCOn1cnc2c(N)ncnc21)OCCOCC               0
6  CC(C)OP(=O)(COCCOn1cnc2c(N)ncnc21)OC(C)C               5
7        CCOP(=O)(COCCOn1cnc2c(N)ncnc21)OCC               4
8  Nc1ncnc2c1ncn2OCCOCP(=O)(OCc1ccccc1)OCc1ccccc1               2
9  Nc1ncnc2c1ncn2OCCOCP(=O)(Oc1ccccc1)Oc1ccccc1              13

Query: GET AUC | system: Mus musculus | item: Nc1ncnc2c1ncn2OCCOCP(=O)(OCc1ccc(Br)cc1)OCc1ccc(Br)cc1
Result: 1

---

The entries below are paired with their reported F%.
System: Mus musculus
Experiment: % bioavailability in mice after oral administration of prodrug
Format: ADME, organism-based
Settings: in vivo
Report as a plain number; the unit % is understood.

                                   compound  unit_label  measured_value
0  CC(OC(=O)C(C)C)OP(=O)(COCCOn1cnc2c(N)ncnc21)OC(C)OC(=O)C(C)C (configuration not stated)           %              24
1  Nc1ncnc2c1ncn2OCCOCP(=O)(OCc1ccc(Br)cc1)OCc1ccc(Br)cc1           %               2
2  CC(C)OP(=O)(COCCOn1cnc2c(N)ncnc21)OC(C)C           %              10
3  CC(=O)Oc1ccc(OP(=O)(COCCOn2cnc3c(N)ncnc32)Oc2ccc(OC(C)=O)cc2)cc1           %               8

Query: Please list F% recorded for the compound CCCCOP(=O)(COCCOn1cnc2c(N)ncnc21)OCCCC
Result: 0

Query: Give recorded F%. CCOCCOP(=O)(COCCOn1cnc2c(N)ncnc21)OCCOCC
Result: 0

---

# AUC values compiled below
Test system: Mus musculus
Experiment: Concentration of the 9-[2-(Phosphonomethoxy)ethoxy]adenine in the blood following oral administration in mice
Format: ADME, organism-based
Set-up: unit not given here
Settings: in vivo
# answer = number (no unit)

                                chem_smiles  measured_quantity  measured_value
0  Nc1ncnc2c1ncn2OCCOCP(=O)(Oc1ccc(Br)cc1)Oc1ccc(Br)cc1                AUC               3

Query: Quote AUC reported for COc1ccc(OP(=O)(COCCOn2cnc3c(N)ncnc32)Oc2ccc(OC)cc2)cc1 please.
Result: 5

---

System: Mus musculus
Experiment: Concentration of the 9-[2-(Phosphonomethoxy)ethoxy]adenine in the blood following oral administration in mice
Type: ADME, organism-based
Design: unit not given here
Details: in vivo
measured.quantity: AUC
Number only, please.

Worked cases, AUC given:
                                   compound  tested_target  measured_value
0  CC(OC(=O)C(C)(C)C)OP(=O)(COCCOn1cnc2c(N)ncnc21)OC(C)OC(=O)C(C)(C)C (stereo not given)   Mus musculus              37
1      Nc1ncnc2c1ncn2OCCOCP(=O)(OCCBr)OCCBr   Mus musculus               4
2  CC(C)C(=O)Oc1ccc(COP(=O)(COCCOn2cnc3c(N)ncnc32)OCc2ccc(OC(=O)C(C)C)cc2)cc1   Mus musculus             0.5
3          COP(=O)(COCCOn1cnc2c(N)ncnc21)OC   Mus musculus               0
4  Nc1ncnc2c1ncn2OCCOCP(=O)(OCc1ccc(Cl)cc1)OCc1ccc(Cl)cc1   Mus musculus               4

Query: // output AUC; input CC(=O)Oc1ccccc1OP(=O)(COCCOn1cnc2c(N)ncnc21)Oc1ccccc1OC(C)=O ; system Mus musculus
Result: 5

Query: Enter recorded AUC with Mus musculus for CC(C)(C)OC(=O)c1ccc(OP(=O)(COCCOn2cnc3c(N)ncnc32)Oc2ccc(C(=O)OC(C)(C)C)cc2)cc1 here.
Result: 0

Query: Jot down AUC (Mus musculus) of CC(C)OP(=O)(COCCOn1cnc2c(N)ncnc21)OCC(=O)OC(C)(C)C (stereo not given) .
Result: 0

Query: Give AUC for CC(OC(=O)C(C)C)OP(=O)(COCCOn1cnc2c(N)ncnc21)OC(C)OC(=O)C(C)C (stereo not given) tested on Mus musculus.
Result: 12

Query: Enter recorded AUC with Mus musculus for CCCCOP(=O)(COCCOn1cnc2c(N)ncnc21)OCCCC here.
Result: 0

---

System: Mus musculus
Assay: % bioavailability in mice after oral administration of prodrug
Format: ADME, organism-based
Conditions: in vivo
measured.quantity: F% (%)
Give your result in % as a bare value.

Consider the worked cases shown below.
>>> df
                                   compound  measured_quantity  unit_label  measured_value
0  CC(OC(=O)C(C)(C)C)OP(=O)(COCCOn1cnc2c(N)ncnc21)OC(C)OC(=O)C(C)(C)C (stereo unspecified)                 F%           %              74
1  Nc1ncnc2c1ncn2OCCOCP(=O)(Oc1ccc(Br)cc1)Oc1ccc(Br)cc1                 F%           %               6
2          COP(=O)(COCCOn1cnc2c(N)ncnc21)OC                 F%           %               0

Query: Report its F% with Mus musculus as the test system: CC(=O)OCc1ccc(OP(=O)(COCCOn2cnc3c(N)ncnc32)Oc2ccc(COC(C)=O)cc2)cc1
Result: 0

Query: Identify measured F% obtained with Mus musculus for CC(C)C(=O)Oc1ccc(COP(=O)(COCCOn2cnc3c(N)ncnc32)OCc2ccc(OC(=O)C(C)C)cc2)cc1 .
Result: 1

Query: Tell me F% of Nc1ncnc2c1ncn2OCCOCP(=O)(OCc1ccccc1)OCc1ccccc1 when tested on Mus musculus.
Result: 4

Query: // output F%; input CC(C)(CCl)C(=O)OCOP(=O)(COCCOn1cnc2c(N)ncnc21)OCOC(=O)C(C)(C)CCl ; system Mus musculus
Result: 0

Query: // output F%; input Nc1ncnc2c1ncn2OCCOCP(=O)(OCCBr)OCCBr ; system Mus musculus
Result: 8
